- TARGET DESC: 15LOX2 (Homo sapiens)
- Sequence (O15296 1-676): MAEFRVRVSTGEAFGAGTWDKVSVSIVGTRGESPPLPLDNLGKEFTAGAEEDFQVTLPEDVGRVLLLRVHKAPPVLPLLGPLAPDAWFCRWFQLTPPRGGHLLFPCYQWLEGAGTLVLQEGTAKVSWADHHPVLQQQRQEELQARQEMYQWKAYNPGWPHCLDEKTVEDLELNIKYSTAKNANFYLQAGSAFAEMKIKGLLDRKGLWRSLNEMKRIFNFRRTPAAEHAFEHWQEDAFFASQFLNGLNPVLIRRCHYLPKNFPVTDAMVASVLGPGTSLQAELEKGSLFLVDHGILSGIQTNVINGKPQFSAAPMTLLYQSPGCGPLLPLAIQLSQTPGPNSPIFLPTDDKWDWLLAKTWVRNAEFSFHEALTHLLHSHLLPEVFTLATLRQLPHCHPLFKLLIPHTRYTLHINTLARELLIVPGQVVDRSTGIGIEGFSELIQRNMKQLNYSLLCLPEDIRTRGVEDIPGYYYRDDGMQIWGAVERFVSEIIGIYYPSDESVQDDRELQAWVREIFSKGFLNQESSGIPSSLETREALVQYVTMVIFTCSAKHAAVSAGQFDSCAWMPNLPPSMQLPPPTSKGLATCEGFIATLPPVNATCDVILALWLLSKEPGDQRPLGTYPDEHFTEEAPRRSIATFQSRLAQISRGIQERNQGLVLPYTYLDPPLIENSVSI
- Sequence (P30086 2-187 partner): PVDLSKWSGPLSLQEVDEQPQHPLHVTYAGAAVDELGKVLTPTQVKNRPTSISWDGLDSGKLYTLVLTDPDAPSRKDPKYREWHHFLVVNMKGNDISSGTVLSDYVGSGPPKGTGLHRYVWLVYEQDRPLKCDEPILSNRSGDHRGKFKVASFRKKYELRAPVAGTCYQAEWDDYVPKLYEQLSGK
MEASURED ENDPOINT: IC50 (nM)

compound="CCOC(=O)c1ccc(NC2CCCCC2)c(N)c1 [Fer-1, Ferrostatin-1]" val=10.1
